Value source: PubChem BioAssay (NCI)

test system: MOLT-4 leukemia; assay: NCI tumour cell line growth inhibition, 48 h; in the data active means GI50 below about 0.43 µM; inactive means the rest
Possible outcomes: active, inactive

1. COc1ccc(-c2cc(/C=C3\C(=O)Nc4cc(Cl)ccc43)[nH]n2)cc1	inactive
2. COC(=O)c1ccc2nc(-c3cc4ccccc4n3C)n(CCCCOc3cc4c(cc3OC)C(=O)N3CCC[C@H]3C=N4)c2c1	active
3. CNC(=O)c1nn(C)c2c1C(C)(C)Cc1cnc(Nc3cccc(N4CCN(C)CC4)c3)nc1-2	active
4. Cc1ccc([P+](Cc2ccccc2)(c2ccccc2)c2ccccc2)cc1	inactive
5. COc1cc(OC)cc(Oc2cnc3cc(N)cc(N)c3n2)c1	inactive
6. Cn1cc(C2=C(c3c4n(c5ccccc35)CCNC4)C(=O)NC2=O)c2ccccc21	inactive
7. CN(C)C1CCN(Cc2ccc(NC(=O)c3cncc(C#Cc4cnc(N)c5ncccc45)c3)cc2C(F)(F)F)CC1	inactive
8. CCN1CCC(CC(=O)Nc2n[nH]c3nnc(-c4cccc(F)c4F)cc23)CC1	inactive
